Every entry's value here was drawn from PubChem BioAssay.

Listed molecules paired with reported composite z-score
- targetOfAssay: Focal adhesion kinase 1 (Homo sapiens)
- procedureText: small-molecule microarray binders of FAK, primary screen, biochemical, 635/667 nm fluorescence, BSA, DTT (AID 1130);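 further: composite of spot emission at 667 nm and signal to noise over triplicate slides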
- experimentalConditions: PTK2 binding, 635 nm fluorescence, higher = more signal
measureName: composite z-score

1) CC=CC(O)C1C=CC2C(=O)N(C)C(=O)C2N1N1CCCCC1 (stereo not drawn) = 0.518
2) O=C1NCC(=O)N2[C@@H]1C[C@@H](C(=O)O)[C@H]2c1ccc(O)cc1 = 0.278
3) C=CCN1Cc2ccccc2C[C@@]2(N=C(c3ccc(OCCCO)cc3)O[C@H]2c2ccccc2)C1=O = 0.649
4) COC1(C)CN(Cc2ccccc2Br)[C@H](/C=C/c2ccccc2)[C@H](Cc2ccccc2)O1 (stereo partly drawn) = 0.106
5) COCCCNC(=O)[C@]1(Cc2ccccc2CN=[N+]=[N-])N=C(c2ccc(OCCCO)cc2)O[C@@H]1c1ccccc1 = 0.306
6) COCCOC(=O)N1C(=O)[C@@]2(c3cc(C#CC4(O)CCCCCC4)ccc31)[C@H](c1ccccc1OCCO)N1[C@H](c3ccccc3)[C@H](c3ccccc3)OC(=O)[C@H]1[C@@H]2C(N)=O = 0.639
7) COc1cc(CO)cc(I)c1O[C@H]1C=C(C(=O)NCCO)C[C@@H](N(CC2CCCCC2)C(=O)c2ccc(C(F)(F)F)cc2)[C@@H]1O = 0.0469
8) CN(C)CCCNC(=O)[C@@H]1c2ccccc2C(=O)N(CC23CC4CC(CC(C4)C2)C3)[C@H]1c1ccc(CO)cc1 = 0.0169

###

- procedureText: P. aeruginosa biofilm formation inhibitors, primary screen, strain PAO1, LB-PBS medium, absorbance 600 nm (AID 1176)
- experimentalConditions: P. aeruginosa PAO1 growth/biofilm, A600, 12 h; higher = more signal
measureName: z-score

1) C[C@@H](OCc1ccccc1)C1NC(=O)[C@@]23C(=O)N[C@@H](Cc4ccccc4)C2[C@H](C)[C@@]2(C)O[C@H]2C3/C=C/C/C=C\CNC(=O)CNC1=O (some centres not stated) = 0.662
2) CC1CC/C=C\[C@H]2OC34C=CCN(C(C)C)C(=O)[C@H]3N(CCCCCO)C(=O)[C@@H]4C2C(=O)O1 (some centres not stated) = -1.28
3) CC(C)(C)OC(=O)CC[C@]1(C(=O)N2CCOCC2)N=C(c2ccc(OCCCO)cc2)O[C@H]1c1ccccc1 = -0.537
4) CN1C(=O)C2C=CC(C(O)C3CCCCC3)N(N3CCCCC3)C2C1=O (configuration not stated) = 0.158
5) CC(C)NC(=O)[C@@]1(C)c2ccccc2C(=O)N(C(C)C)[C@H]1c1ccc(CO)cc1 = 0.972
6) NC(=O)NCC#Cc1ccc2c(c1)[C@]1(C(=O)N2)[C@H](C(=O)Nc2nc3ccccc3s2)[C@H]2C(=O)O[C@H](c3ccccc3)[C@H](c3ccccc3)N2[C@@H]1c1ccc(O)cc1 = 2.87
7) CCCN1C(=O)[C@]2(Cc3ccccc3)N=C(c3ccc(OCCCO)cc3)O[C@@H]2c2ccccc21 = -0.0963

###

Examples of molecules with documented composite z-score follow.
- System: XIP peptide (Xip251-270)
- procedureText: small-molecule binders of XIP peptide, primary screen, biochemical, small-molecule microarray, fluorescence 635/667 nm, 0.5 µg/mL protein (AID 1183)
- experimentalConditions: small-molecule microarray binding, fluorescence 635 nm; higher = more signal
measureName: composite z-score

1) [N-]=[N+]=Nc1ccccc1[C@H]1OC(c2ccc(OCCCO)cc2)=N[C@@]1(CCS(=O)(=O)c1ccccc1)C(=O)N1CCCCC1 = 0.755
2) COCC(=C=CC[C@H](O)c1cccc(OCCO)c1)C[C@H](O)c1ccccn1 = 0.157
3) COc1ccc([Si](C)(C)[C@H]2[C@H](CCn3cc([C@H](O)c4ccccc4)nn3)O[C@@]3(C(=O)N(Cc4ccc(N5CCC5=O)cc4)c4ccccc43)[C@@H]2C)cc1 = 0.576
4) CCOC(=O)[C@H]1C/C=C/C[C@H](C(=O)OCC)C(=O)O[C@H]2[C@@H](OC)O[C@H](CO)[C@@H](OC(=O)Nc3ccc(OC)cc3)[C@@H]2OC1=O = 0.601
5) Cc1ccc(C(C)CC(O)C2C=CC3C(=O)N(c4ccccc4)C(=O)C3N2Nc2ccc(C(C)C)cc2)o1 (stereo unspecified) = 0.691
6) COC(=O)[C@@]1(Cc2ccccc2)[C@H]2c3cc(C(=O)N4CCCC4)[nH]c3C[C@H]2CN1C(=O)c1ccccc1 = 0.659

###

- procedureText: fission yeast growth modulation, primary screen, strain 972, OD600, 24 h, no modulator (AID 1090);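 further: basal condition with compound alone and no growth modifier present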
- experimentalConditions: S. pombe 972 growth, higher = more signal, called active from +8 up or from −8 down
Note to self: values exactly at 1 are Condition met. So z-score at or above 1 is Condition met, below is Condition not met.

1) COC(=O)[C@@]1(Cc2ccc(F)cc2)[C@H]2c3cc(C(=O)N4CCCC4)n(CCF)c3C[C@H]2CN1C(=O)c1ccccc1 = Condition not met
2) COc1cc2c(cc1OC)CN(C(=O)[C@H]1[C@@H]3C(=O)O[C@@H](c4ccccc4)[C@@H](c4ccccc4)N3[C@@H](c3ccc(OCCO)cc3)[C@]13C(=O)Nc1ccc(C#CC4(O)CCCCCC4)cc13)CC2 = Condition met
3) COc1ccc(C#Cc2ccc3c(c2)[C@]2(C(=O)N3)[C@H](C(=O)N3CCc4cc(OC)c(OC)cc4C3)[C@H]3C(=O)O[C@H](c4ccccc4)[C@H](c4ccccc4)N3[C@@H]2c2ccc(O)cc2)cc1 = Condition met
4) COC(=O)[C@@]1(Cc2ccc(OC)cc2)[C@H]2c3cc(C(=O)N4CCCC4)n(CCc4cc5ccccc5[nH]4)c3C[C@H]2CN1C(=O)c1ccccc1 = Condition met
5) Cc1ccc(S[C@]2(C(=O)O)CC(=O)N(Cc3ccccc3Cl)[C@@H]2c2ccc(CO)cc2)cc1 = Condition not met
6) COc1ccc(C(O)C2C=CC3C(=O)N(Cc4ccccc4)C(=O)C3N2n2cnnc2)c2ccccc12 (stereo unspecified) = Condition not met

###

- targetOfAssay: Fibroblast growth factor 10 (Homo sapiens)
- procedureText: FGF10 binders on small-molecule microarrays, primary screen, biochemical, small-molecule microarray, 635 nm fluorescence (AID 1102)
- experimentalConditions: FGF10 binding, fluorescence 635 nm, higher = more signal
Each record here notes measured composite z-score.
measureName: composite z-score

1) COc1c(C)cc(-c2cc3c(c(-c4ccccc4)n2)[Si](C(C)C)(C(C)C)OC3)cc1C = -0.216
2) O=C1C[C@]2(c3ccc([N+](=O)[O-])cc3)C(=O)N(Cc3ccccc3)c3cc(CO)ccc3[C@H]2N1CC12CC3CC(CC(C3)C1)C2 = -0.36
3) CC(C)(C)OC(=O)CC[C@]1(C(=O)O)N=C(c2ccc(OCCCO)cc2)O[C@H]1c1ccccc1CN=[N+]=[N-] = 0.253
4) CC(C)C(O)C1C=CC2C(=O)N(C)C(=O)C2N1N(c1ccccc1)c1ccccc1 (configuration not stated) = -0.879
5) NC(=O)NCC#Cc1ccc2c(c1)[C@]1(C(=O)N2)[C@H](C(=O)O)[C@H]2C(=O)O[C@H](c3ccccc3)[C@H](c3ccccc3)N2[C@@H]1c1ccccc1OCCO = 0.991
6) COC1(C)CN(Cc2ccccc2Br)[C@H](/C=C/c2ccccc2)[C@H](Cc2ccccc2)O1 (some centres not stated) = -0.258
7) C=CC[C@@]12N=C(c3ccc(OCCCO)cc3)O[C@@H]1c1ccccc1N(CCS(=O)(=O)c1ccccc1)C2=O = 0.397

###

- procedureText: Plasmodium falciparum growth inhibition, primary screen, strain 3D7, DAPI fluorescence, 100 nL (AID 1184);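 further: parasites grown inside human red blood cells in medium with human serum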
- experimentalConditions: P. falciparum 3D7 growth, 3 d, higher = more signal
Note to self: values exactly at -2 are Y. So z-score at or above -2 is Y, below is N.

1) CCCCC(CC)C(O)C1C=CC2C(=O)N(c3ccccc3)C(=O)C2N1Nc1ccc([N+](=O)[O-])cc1 (configuration not stated) = Y
2) C=C(CCCC)C(=O)CC[C@@H](OC(=O)c1ccccc1-c1ccccc1C(=O)O)c1cccc(OCCO)c1 = N
3) O=C1O[C@@H](c2ccccc2)[C@@H](c2ccccc2)N2[C@@H](c3ccccc3OCCO)[C@]3(C(=O)Nc4ccc(C#CCCO)cc43)[C@@H](C(=O)Nc3nc4ccccc4s3)[C@H]12 = N
4) COc1ccc(C(O)C2C=CC3C(=O)N(c4ccccc4)C(=O)C3N2Nc2ccc(C#N)cc2)c2ccccc12 (configuration not stated) = Y
5) CC(C)NC(=O)[C@@]1(C)c2ccccc2C(=O)N(C(C)C)[C@H]1c1ccc(CO)cc1 = Y
6) COc1ccc([Si](C)(C)[C@H]2[C@H](CC(=O)N3Cc4ccccc4C[C@H]3CO)O[C@@]3(C(=O)N(Cc4cccc(N5CCCCC5=O)c4)c4ccccc43)[C@@H]2C)cc1 = Y
7) COc1ccc([Si](C)(C)[C@@H]2[C@@H](CCn3cc([C@H](O)c4ccccc4)nn3)O[C@]3(C(=O)N(Cc4ccc(N5CCOC5=O)cc4)c4ccccc43)[C@H]2C)cc1 = N
